Reported IC50 values for a set of compounds
Target: human PDE10A (UniProt Q9Y233)
Sequence (Q9Y233 290-1055 limits assumed): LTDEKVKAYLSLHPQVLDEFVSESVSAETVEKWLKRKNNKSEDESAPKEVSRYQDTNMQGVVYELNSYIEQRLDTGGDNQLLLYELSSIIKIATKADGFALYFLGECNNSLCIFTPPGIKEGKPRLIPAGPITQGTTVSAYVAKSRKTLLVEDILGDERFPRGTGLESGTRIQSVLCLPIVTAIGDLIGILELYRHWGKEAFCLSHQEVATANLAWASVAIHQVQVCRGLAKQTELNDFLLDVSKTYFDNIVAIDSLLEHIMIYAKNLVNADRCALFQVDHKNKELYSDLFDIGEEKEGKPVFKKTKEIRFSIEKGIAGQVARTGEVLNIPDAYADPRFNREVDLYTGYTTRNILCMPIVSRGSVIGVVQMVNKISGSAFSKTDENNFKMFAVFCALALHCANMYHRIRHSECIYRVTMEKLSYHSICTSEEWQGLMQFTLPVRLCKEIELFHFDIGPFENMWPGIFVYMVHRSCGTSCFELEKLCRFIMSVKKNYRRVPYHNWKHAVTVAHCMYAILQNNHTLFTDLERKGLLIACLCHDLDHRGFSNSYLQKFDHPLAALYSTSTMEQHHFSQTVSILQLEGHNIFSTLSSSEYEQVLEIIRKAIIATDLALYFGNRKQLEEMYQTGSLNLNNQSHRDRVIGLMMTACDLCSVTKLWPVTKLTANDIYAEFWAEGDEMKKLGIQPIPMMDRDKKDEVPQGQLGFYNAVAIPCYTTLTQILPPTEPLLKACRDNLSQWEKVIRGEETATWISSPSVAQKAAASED
Experiment: Measurement of PDE activity (recombinant enzyme, HTRF cAMP kit)
Format: biochemical
Settings: Table 1, substrate 20 nM for PDE10, 60 minutes at 29 C, read-out: IC50
Procedure: The recombinant PDE proteins are used in in vitro enzymatic reaction for measurement of PDE activity. […] The enzymatic activity of PDEs was determined by cAMP measurement kit from CisBio (IBA) using HTRF technology. The PDE enzymatic reaction was carried out in assay buffer (20 mM Tris-HCl pH7.5, 10 mM MgCl2, 0.1% bovine serum albumin) containing enzyme and substrate. […] The inhibitory effect of compound was determined by incubating various concentration of inhibitor in the enzymatic assay. […]
Counter-ions that a name gives are not always drawn.

Worked examples, 8 compounds total:
O=c1c2c(-c3ccncc3)csc2cnn1CCc1ccc2cc(Cl)ccc2n1 [compound 318, hydrochloride]; 200 to 500 nM
O=c1c2c(C3CCOCC3)cccc2ccn1C1CC1c1ccc2ccccc2n1 (stereo not shown); < 100 nM
O=c1c2c(-c3ccc(F)nc3)csc2ccn1C1CC1c1ccc2ccccc2n1 (stereo not shown); < 100 nM
O=c1c2c(-c3ccncc3)cccc2cnn1CCc1cn2ccccc2n1; < 100 nM
O=c1c2c(-c3ccnnc3)coc2ccn1[C@@H]1C[C@H]1c1ccc2ccccc2n1 (relative stereo); < 100 nM
O=c1c2c(N3CCOCC3)cccc2ccn1C1CC1c1ccc2ccccc2n1 (single isomer, unassigned) [Example 246b]; < 100 nM
COc1cccc(-c2csc3cnn(CCc4ccc5ccccc5n4)c(=O)c23)c1F; 200 to 500 nM
Cc1cc2ccccc2nc1CCn1ccc2cccc(-c3ccncc3)c2c1=O; < 100 nM

// sample O=c1c2c(-c3cncc(F)c3)cccc2cnn1CCc1cn2ccccc2n1 [compound 345, hydrochloride] , its IC50 was 100 to 200 nM

// sample O=c1c2c(-c3ccnc(F)c3)cccc2ccn1[C@@H]1C[C@H]1c1ccc2ccccc2n1 (relative stereo) , its IC50 was < 100 nM

// sample CC(=O)N1CCCC(Nc2cccc3cnn(CCc4cn5ccccc5n4)c(=O)c23)C1 (stereo not shown) [compound 389, hydrochloride] , its IC50 was 100 to 200 nM

// sample O=c1c2c(-c3ccncc3)csc2cnn1CC(F)(F)c1ccc2ccccc2n1 , its IC50 was < 100 nM

// sample Cc1ccc(-c2cccc3cnn(CCc4ccc5ccccc5n4)c(=O)c23)c(F)c1 , its IC50 was 200 to 500 nM

// sample O=c1c2c(-c3ccncc3)csc2ccn1C1CC1c1ccc2ccccc2n1 (single isomer, unassigned) [293a] , its IC50 was < 100 nM

// sample O=c1c2cccc(N3CCOCC3)c2cnn1CCc1cn2ccccc2n1 [Example 198, hydrochloride] , its IC50 was < 100 nM

// sample O=c1c2c(OCc3ccncc3)cccc2cnn1CCc1cn2ccccc2n1 , its IC50 was 100 to 200 nM
